Examples of compounds with documented pIC50 follow.
Tested on: human differentiated HL-60 cells
Assay explanation: LTB4 secretion assay in differentiated HL-60 cells (A23187, EIA)
Type: cell-based
Condition set: 0.5 h, A23187 5 uM, 37 C, 30 min, read-out: Inhibition of LTB4 secretion: IC50
Description: The assays were performed using human differentiated HL-60 cells using NDGA as reference compound following the literature procedure (Bennett, C. F. et al, Biochem. J., 1993, 289: 33-39). Substrate A23187 (5 uM) was incubated along with test compound in HL-60 cells at 37 C for 30 min. Reaction product LTB4 was detected by enzymeimmuno assays (EIA) using commercially available kits and a microplate reader.
pIC50: −log10 of the molar value.

Answered examples (2):
INPUT: Which pIC50 value is on record for O=c1c2ccc(Cl)cc2nc(N2CCC(Nc3nc4ccccc4n3Cc3ccc(F)cc3)CC2)n1O ?
OUTPUT: > 5.00

INPUT: Reported pIC50, compound Cc1cccc2nc(N3CCC(Nc4nc5ccccc5n4Cc4ccc(F)cc4)CC3)n(O)c(=O)c12 : ____
OUTPUT: > 5.00

Further cases:
INPUT: pIC50 lookup needed for O=c1c2cc(Br)ccc2nc(N2CCC(Nc3nc4ccccc4n3Cc3ccc(F)cc3)CC2)n1O , thanks.
OUTPUT: > 5.00

INPUT: Report pIC50 for O=c1c2cc([N+](=O)[O-])ccc2nc(N2CCC(Nc3nc4ccccc4n3Cc3ccc(F)cc3)CC2)n1O please.
OUTPUT: < 5.00

INPUT: Report pIC50 for O=c1c2ccccc2nc(N2CCN(C(c3ccccc3)c3ccc(Cl)cc3)CC2)n1O (centres unmarked) please.
OUTPUT: > 5.00

###

System: human differentiated HL-60 cells
Assay explanation: LTB4 secretion assay in differentiated HL-60 cells (A23187, EIA)
Type: cell-based
Condition set: 0.5 h, A23187 5 uM, 37 C, 30 min, read-out: Inhibition of LTB4 secretion: IC50
Endpoint label: IC50

Sample records with IC50:
INPUT: Consider the molecule shown here: O=c1c2cc(F)ccc2nc(N2CCC(Nc3nc4ccccc4n3Cc3ccc(F)cc3)CC2)n1O What is its recorded IC50?
OUTPUT: < 10 µM

INPUT: # input molecule: O=c1c2c(Cl)cccc2nc(N2CCC(Nc3nc4ccccc4n3Cc3ccc(F)cc3)CC2)n1O ; wanted: its IC50
OUTPUT: < 1 µM

INPUT: Would you kindly share the measured IC50 for O=c1c2ccc(F)cc2nc(N2CCC(Nc3nc4ccccc4n3Cc3ccc(F)cc3)CC2)n1O ?
OUTPUT: < 10 µM

INPUT: Query: IC50; subject: COc1ccc2nc(N3CCC(Nc4nc5ccccc5n4Cc4ccc(F)cc4)CC3)n(O)c(=O)c2c1
OUTPUT: < 10 µM

INPUT: Can you share its IC50? I mean this molecule: COc1cc2nc(N3CCC(Nc4nc5ccccc5n4Cc4ccc(F)cc4)CC3)n(O)c(=O)c2cc1OC
OUTPUT: < 10 µM

New cases:
INPUT: Record request: IC50 value, item COc1cccc2c(=O)n(O)c(N3CCC(Nc4nc5ccccc5n4Cc4ccc(F)cc4)CC3)nc12
OUTPUT: > 10 µM

INPUT: Consider the molecule shown here: O=c1c2cc(Cl)ccc2nc(N2CCC(Nc3nc4ccccc4n3Cc3ccc(F)cc3)CC2)n1O What is its recorded IC50?
OUTPUT: < 10 µM

INPUT: Please give the measured IC50 for this molecule: O=c1c2ccccc2nc(N2CCC(Nc3nc4ccccc4n3Cc3ccc(F)cc3)CC2)n1O
OUTPUT: < 10 µM
